The following molecules are shown together with reported IC50 values.
Target: human α1H T-type channels (Homo sapiens)
Assay: T-type calcium channel block, whole cell patch clamp, α1H
Conditions: HEK cells stably expressing human α1H; mainly non-inactivated protocol; values above 10,000 nM represented as 10000
Hi! Could you send only the number? It should be in nM, unit omitted.

What the record says about CC1(NC(=O)c2ccc(C(F)(F)F)nc2S(C)(=O)=O)CCC(S(=O)(=O)c2cccc(C(F)(F)F)c2)CC1 (centres unmarked) [Compound 316] : IC50 is 2910

What the record says about CC(C)(C)Oc1ccc(CNC(=O)C(C)(C)S(=O)(=O)c2cccc(C(F)(F)F)c2)cc1 [Compound 502] : IC50 is 3060

Next:
What the record says about Cn1nc(C(F)(F)F)cc1NC(=O)[C@H]1C[C@@H](S(=O)(=O)c2cccc(C(F)(F)F)c2)C1 [Compound 408] : IC50 is 420

What the record says about Cc1nc(C(F)(F)F)ccc1NC(=O)[C@H]1C[C@@H](S(=O)(=O)c2cccc(C(F)(F)F)c2)C1 [Compound 418] : IC50 is 2870

What the record says about O=C(N[C@H]1CC[C@@](F)(S(=O)(=O)c2cccc(C(F)(F)F)c2)CC1)[C@@H]1C[C@@H](Cc2ccc(F)cc2)CN1 [Compound 287] : IC50 is 1130

What the record says about CN(C(=O)CN[C@H]1CC[C@@H](CS(=O)(=O)c2cccc(C(F)(F)F)c2)CC1)C(C)(C)C [Compound 145] : IC50 is 1340

What the record says about O=C(NC[C@H]1C[C@H](S(=O)(=O)c2cccc(C(F)(F)F)c2)C1)c1ccc(OC(F)(F)F)cc1 [Compound 373] : IC50 is 610

What the record says about CC(C)(CNC(=O)c1ccc(F)c(C(F)(F)F)c1)S(=O)(=O)c1cccc(C(F)(F)F)c1 [Compound 456] : IC50 is 910

====

Target: human α1H T-type channels (Homo sapiens)
Experiment: T-type calcium channel block, whole cell patch clamp, α1H
Conditions: HEK cells stably expressing human α1H; mainly non-inactivated protocol; values above 10,000 nM represented as 10000
property: pIC50
When answering, recall that pIC50 equals minus log10 of the concentration in mol/L, and write that number alone.

What the record says about `CC1(NC(=O)CN[C@H]2CC[C@](F)(S(=O)(=O)c3cccc(C(F)(F)F)c3)CC2)CCC1` : pIC50 is 6.03

What the record says about `CC(C)(CNC(=O)c1ccc(C(F)(F)F)cn1)S(=O)(=O)c1cccc(C(F)(F)F)c1` : pIC50 is 5.25

What the record says about `CC(C)(CNC(=O)c1cc(C(F)(F)F)ccn1)S(=O)(=O)c1cccc(C(F)(F)F)c1` : pIC50 is 5.16

What the record says about O=C(N[C@H]1CC[C@@](F)(S(=O)(=O)c2cccc(C(F)(F)F)c2)CC1)C1Cc2ccccc2N1 (some centres unmarked) : pIC50 is 5.68

# input for lookup
What the record says about `CN(C(=O)CN[C@H]1CC[C@@](F)(S(=O)(=O)c2cccc(C(F)(F)F)c2)CC1)C(C)(C)C` : pIC50 is 5.52

====

Biological target: human α1H T-type channels (Homo sapiens, UniProt O95180)
Sequence (O95180 whole entry): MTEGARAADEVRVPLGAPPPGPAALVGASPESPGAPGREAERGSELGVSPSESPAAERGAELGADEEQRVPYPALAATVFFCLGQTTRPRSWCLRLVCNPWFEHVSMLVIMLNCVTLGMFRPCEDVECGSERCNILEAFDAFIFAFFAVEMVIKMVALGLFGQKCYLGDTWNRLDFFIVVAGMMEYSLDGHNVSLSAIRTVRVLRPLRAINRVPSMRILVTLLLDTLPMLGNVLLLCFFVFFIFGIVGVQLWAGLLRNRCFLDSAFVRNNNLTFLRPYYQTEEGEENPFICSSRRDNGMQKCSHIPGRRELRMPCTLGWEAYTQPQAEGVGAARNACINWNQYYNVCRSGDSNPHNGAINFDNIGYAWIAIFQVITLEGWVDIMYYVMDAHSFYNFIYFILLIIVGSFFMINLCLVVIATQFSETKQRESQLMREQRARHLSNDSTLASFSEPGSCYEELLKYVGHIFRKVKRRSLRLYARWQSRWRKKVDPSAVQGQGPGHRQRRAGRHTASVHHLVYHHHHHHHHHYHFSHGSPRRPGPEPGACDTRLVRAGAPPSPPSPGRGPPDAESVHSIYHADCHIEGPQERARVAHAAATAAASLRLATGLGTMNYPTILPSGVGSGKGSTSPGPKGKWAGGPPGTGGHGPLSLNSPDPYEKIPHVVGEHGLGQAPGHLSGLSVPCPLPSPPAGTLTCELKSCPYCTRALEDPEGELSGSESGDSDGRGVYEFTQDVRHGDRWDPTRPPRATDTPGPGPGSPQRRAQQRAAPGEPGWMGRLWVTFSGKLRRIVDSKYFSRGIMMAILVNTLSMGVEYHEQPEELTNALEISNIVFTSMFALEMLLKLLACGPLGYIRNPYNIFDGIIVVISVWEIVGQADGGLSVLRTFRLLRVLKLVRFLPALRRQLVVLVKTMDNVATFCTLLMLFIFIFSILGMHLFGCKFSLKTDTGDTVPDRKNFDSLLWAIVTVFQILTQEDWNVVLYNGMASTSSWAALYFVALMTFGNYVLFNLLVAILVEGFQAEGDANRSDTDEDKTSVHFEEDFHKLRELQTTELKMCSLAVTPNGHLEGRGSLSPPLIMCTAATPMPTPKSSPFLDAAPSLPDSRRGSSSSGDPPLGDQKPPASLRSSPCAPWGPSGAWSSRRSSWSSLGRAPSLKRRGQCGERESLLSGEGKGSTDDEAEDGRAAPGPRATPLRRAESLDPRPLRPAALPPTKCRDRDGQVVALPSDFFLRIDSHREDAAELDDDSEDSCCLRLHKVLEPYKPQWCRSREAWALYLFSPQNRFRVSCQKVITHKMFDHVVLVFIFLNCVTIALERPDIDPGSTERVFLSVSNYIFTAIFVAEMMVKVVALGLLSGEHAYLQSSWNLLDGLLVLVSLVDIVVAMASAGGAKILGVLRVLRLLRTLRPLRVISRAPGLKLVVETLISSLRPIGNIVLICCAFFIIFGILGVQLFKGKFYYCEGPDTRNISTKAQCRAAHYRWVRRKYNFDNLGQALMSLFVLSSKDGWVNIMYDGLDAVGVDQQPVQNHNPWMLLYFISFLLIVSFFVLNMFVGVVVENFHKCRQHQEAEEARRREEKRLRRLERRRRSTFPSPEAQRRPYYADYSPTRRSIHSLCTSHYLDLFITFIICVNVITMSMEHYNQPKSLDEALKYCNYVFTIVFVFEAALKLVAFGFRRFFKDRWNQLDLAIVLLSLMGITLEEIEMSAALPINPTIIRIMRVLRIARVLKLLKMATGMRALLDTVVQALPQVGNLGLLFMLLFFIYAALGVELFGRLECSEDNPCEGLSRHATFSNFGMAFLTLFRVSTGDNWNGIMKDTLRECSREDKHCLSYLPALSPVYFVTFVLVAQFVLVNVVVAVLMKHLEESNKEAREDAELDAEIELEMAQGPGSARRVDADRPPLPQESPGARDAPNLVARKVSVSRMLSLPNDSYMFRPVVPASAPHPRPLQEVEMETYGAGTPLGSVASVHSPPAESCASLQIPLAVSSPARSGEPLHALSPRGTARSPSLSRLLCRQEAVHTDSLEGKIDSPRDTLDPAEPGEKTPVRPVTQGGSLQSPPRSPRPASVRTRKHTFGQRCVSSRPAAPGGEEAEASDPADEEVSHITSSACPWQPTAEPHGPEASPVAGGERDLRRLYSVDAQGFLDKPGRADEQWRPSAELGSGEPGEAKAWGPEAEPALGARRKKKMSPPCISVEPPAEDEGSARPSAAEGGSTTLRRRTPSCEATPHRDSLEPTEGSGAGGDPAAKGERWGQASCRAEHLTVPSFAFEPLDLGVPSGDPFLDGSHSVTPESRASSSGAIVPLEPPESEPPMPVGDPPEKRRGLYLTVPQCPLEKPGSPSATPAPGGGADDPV
Experiment: T-type calcium channel block, whole cell patch clamp, α1H
Conditions: HEK cells stably expressing human α1H; mainly non-inactivated protocol; values above 10,000 nM represented as 10000
pIC50: −log10 of the molar value.
YES means recorded pIC50 is 6 or above; NO means it is below 6.

Examples with answers:
Could you tell me if the measured pIC50 of `CC(C)(C(=O)Nc1ccc(Oc2ccc(F)cc2)nc1)S(=O)(=O)c1cccc(C(F)(F)F)c1` reaches 6 or more?
NO

Could you tell me if the measured pIC50 of `O=C(N[C@H]1CC[C@H](S(=O)(=O)c2cccc(C(F)(F)F)c2)CC1)c1cc(F)cc(Cl)c1` reaches 6 or more?
NO

Could you tell me if the measured pIC50 of `CS(=O)(=O)c1cc(Cl)ccc1C(=O)NC[C@H]1C[C@H](S(=O)(=O)c2cccc(C(F)(F)F)c2)C1` reaches 6 or more?
YES

Next:
Could you tell me if the measured pIC50 of `CC(C)(CCNC(=O)c1ccc(C(F)(F)F)cc1S(C)(=O)=O)S(=O)(=O)c1cccc(C(F)(F)F)c1` reaches 6 or more?
NO

Could you tell me if the measured pIC50 of `O=C(N[C@H]1CC[C@H](S(=O)(=O)c2cccc(C(F)(F)F)c2)CC1)c1cc(F)cc(C(F)(F)F)c1` reaches 6 or more?
NO

Could you tell me if the measured pIC50 of `O=C(N[C@H]1CC[C@@](F)(S(=O)(=O)c2cccc(C(F)(F)F)c2)CC1)c1cc(F)cc(Cl)c1` reaches 6 or more?
NO

Could you tell me if the measured pIC50 of `O=C(NC[C@H]1C[C@H](S(=O)(=O)c2cccc(C(F)(F)F)c2)C1)c1cc(F)cc(Cl)c1` reaches 6 or more?
YES

Could you tell me if the measured pIC50 of `O=C(CNC[C@H]1CC[C@@H](S(=O)(=O)c2cccc(C(F)(F)F)c2)CC1)NCC(F)(F)F` reaches 6 or more?
NO

Could you tell me if the measured pIC50 of `O=C(Nc1cccc(C(F)(F)F)n1)[C@H]1C[C@H](S(=O)(=O)c2cccc(C(F)(F)F)c2)C1` reaches 6 or more?
NO

Could you tell me if the measured pIC50 of `CC(C)(CNC(=O)c1ccc(OCC(F)(F)F)nc1)S(=O)(=O)c1cccc(C(F)(F)F)c1` reaches 6 or more?
NO

Could you tell me if the measured pIC50 of `Cn1nc(C(F)(F)F)cc1C(=O)N[C@H]1C[C@H](CS(=O)(=O)c2cccc(C(F)(F)F)c2)C1` reaches 6 or more?
NO

Could you tell me if the measured pIC50 of `CC(C)(C)NC(=O)CN[C@H]1CC[C@@H](S(=O)(=O)c2cccc(C(F)(F)F)c2)CC1` reaches 6 or more?
NO

Could you tell me if the measured pIC50 of `COc1cc(F)cc(C(=O)NCCC(C)(C)S(=O)(=O)c2cccc(C(F)(F)F)c2)c1` reaches 6 or more?
NO

Could you tell me if the measured pIC50 of `O=C(CN[C@H]1CC[C@H](S(=O)(=O)c2cccc(C(F)(F)F)c2)CC1)NC1CCCCC1` reaches 6 or more?
YES

Could you tell me if the measured pIC50 of `COc1cc(F)cc(C(=O)N[C@H]2CC[C@@H](CS(=O)(=O)c3cccc(C(F)(F)F)c3)CC2)c1` reaches 6 or more?
YES

Could you tell me if the measured pIC50 of `O=C(NC[C@H]1C[C@@H](S(=O)(=O)c2cccc(C(F)(F)F)c2)C1)c1ccnc(C(F)(F)F)n1` reaches 6 or more?
NO

Could you tell me if the measured pIC50 of CC1(S(=O)(=O)c2cccc(C(F)(F)F)c2)CCC(NC(=O)c2ccc(C(F)(F)F)cn2)CC1 (stereo not shown) reaches 6 or more?
NO

Could you tell me if the measured pIC50 of `O=C(CN[C@H]1C[C@H](CS(=O)(=O)c2cccc(C(F)(F)F)c2)C1)NC1CCCCC1` reaches 6 or more?
NO

Could you tell me if the measured pIC50 of O=C(NC1CCC(S(=O)(=O)c2cccc(C(F)(F)F)c2)CC1)c1ccn(CC(F)(F)F)n1 (stereo not shown) reaches 6 or more?
YES

Could you tell me if the measured pIC50 of `CN(C(=O)c1ccc(F)c(Cl)c1)[C@H]1CC[C@@](F)(S(=O)(=O)c2cc(F)cc(C(F)(F)F)c2)CC1` reaches 6 or more?
NO
